assayed-system: T1, human NPRA (human, UniProt P16066 33-1061)
T1 sequence (looked up): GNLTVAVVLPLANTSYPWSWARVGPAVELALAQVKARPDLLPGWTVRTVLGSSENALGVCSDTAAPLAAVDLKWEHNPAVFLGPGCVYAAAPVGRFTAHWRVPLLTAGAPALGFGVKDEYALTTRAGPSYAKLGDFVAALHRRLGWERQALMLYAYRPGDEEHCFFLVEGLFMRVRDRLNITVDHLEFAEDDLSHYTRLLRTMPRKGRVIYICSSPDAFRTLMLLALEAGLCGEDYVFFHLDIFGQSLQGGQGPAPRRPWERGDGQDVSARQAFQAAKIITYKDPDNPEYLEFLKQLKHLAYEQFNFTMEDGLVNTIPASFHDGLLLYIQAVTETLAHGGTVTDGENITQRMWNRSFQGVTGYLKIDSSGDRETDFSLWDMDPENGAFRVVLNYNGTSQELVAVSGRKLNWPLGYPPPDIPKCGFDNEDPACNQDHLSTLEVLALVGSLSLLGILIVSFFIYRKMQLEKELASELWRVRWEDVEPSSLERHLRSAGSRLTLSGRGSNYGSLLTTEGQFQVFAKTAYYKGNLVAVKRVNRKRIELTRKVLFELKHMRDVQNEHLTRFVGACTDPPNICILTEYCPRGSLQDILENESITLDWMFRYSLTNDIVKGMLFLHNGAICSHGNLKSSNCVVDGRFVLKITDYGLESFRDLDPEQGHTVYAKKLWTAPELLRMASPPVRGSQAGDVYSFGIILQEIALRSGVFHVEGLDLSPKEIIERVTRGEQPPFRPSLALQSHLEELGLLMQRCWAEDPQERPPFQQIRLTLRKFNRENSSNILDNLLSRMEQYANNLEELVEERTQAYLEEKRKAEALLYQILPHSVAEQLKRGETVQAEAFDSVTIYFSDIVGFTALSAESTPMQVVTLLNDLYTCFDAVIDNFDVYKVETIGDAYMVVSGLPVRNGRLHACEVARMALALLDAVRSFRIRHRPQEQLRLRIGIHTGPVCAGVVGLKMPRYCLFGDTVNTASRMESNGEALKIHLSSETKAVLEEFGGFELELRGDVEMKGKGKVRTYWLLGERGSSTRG
test-details: cell-based or functional assay
Numbered stars: 1 amine (or outer) side, 2 acyl side, 3 side chain; on linkers, the order of the positions; unused ones are H or OH. Bridge positions count the residues as written; N and C are the ends. Square brackets hold non-standard residues; d marks the D form. Ends that are not written are not given here. * marks the point of attachment. thioacetal = thioacetal linkage between two cysteines (intrachain bond at the bracketed Cys); C20 diacid = O=C(O)CCCCCCCCCCCCCCCCCCC(=O)*; C16 diacid = O=C(O)CCCCCCCCCCCCCCC(=O)*; γGlu = O=C(O)[C@H](CCC(=O)[*:2])N[*:1]; 4Pal = N[C@@H](Cc1ccncc1)C(=O)O; βAla = NCCC(=O)O
hey, just use T if measured cGMP Assay (EC50, pM) w/Casein is less than 400 pM, otherwise F

binder	category
XEKEKEKGSXRRSSCFGGRIDRIGHQSGLGCPSFRHGGPSSGAPPPS (HOOC-(CH2)18-CO-(γGlu)-EKEKEKGS-4Pal-RRSS[CFGGRIDRIGHQSGLGC]PSFRHGGPSSGAPPPS-NH2; thioacetal linkage between the bracketed Cys) [Example 2]	F
{C20 diacid}-[γGlu]EKEKEKGS[4Pal]RRSSCFGGRIDRIGHQSGLGCPSFRHRITAREDKQGYA-NH2 (disulfide 15-31) [Example 25]	F
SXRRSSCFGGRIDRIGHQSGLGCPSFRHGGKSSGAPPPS (HOOC-(CH2)18-CO-(γGlu)-EKEKEKG-(AEEA)4-S-4Pal-RRSS[CFGGRIDRIGHQSGLGC]PSFRHGGKSSGAPPPS-NH2; thioacetal linkage between the bracketed Cys) [Example 83]	F
{C16 diacid}-[γGlu]EKEKEKGEK[βAla]RSSCFGGRIDRIGHYSGLGCPSFRHGGKSSGAPPPS-NH2 (bridge 15-31 via thioacetal) [Example 73]	F
{C20 diacid}-[γGlu]EKEKEKGS[4Pal]RRSSCFGGRIDRIGHQSGLGCPSFRHSGAPPPSE-NH2 (disulfide 15-31) [Example 39]	T
{C20 diacid}-[γGlu]EKEKEKGS[4Pal]RRSSCFGKRIDRIGHQSGLGCPSFRHGGKSSGAPPPS-NH2 (bridge 15-31 via thioacetal) [Example 79]	T
XEKEKEKGSXRRSSCFGGRIDRIGAQSGLGCPSFRXGGPSSGAPPPS (HOOC-(CH2)18-CO-(γGlu)-EKEKEKGS-4Pal-RRSS[CFGGRIDRIGAQSGLGC]PSFR-4Pal-GGPSSGAPPPS-NH2; disulfide linkage between the bracketed Cys) [Example 23]	F
EK[βAla]RSSCFGKRIDRIGHQSGLGCPSFRHGGKSSGAPPPS-NH2 (bridge 7-23 via thioacetal; not fully specified (N-terminus)) [Example 90]	F
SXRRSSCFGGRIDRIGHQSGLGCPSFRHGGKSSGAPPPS (HOOC-(CH2)18-CO-(γGlu)-EKEKEKG-PEG24-S-4Pal-RRSS[CFGGRIDRIGHQSGLGC]PSFRHGGKSSGAPPPS-NH2; thioacetal linkage between the bracketed Cys) [Example 75]	F
XEKEKEKGSKXRSSCFGGRIDRIGHYSGLGCPSFRHGGPSSGAPPPS (HOOC-(CH2)18-CO-(γGlu)-EKEKEKGSK-βAla-RSS[CFGGRIDRIGHYSGLGC]PSFRHGGPSSGAPPPS-NH2; thioacetal linkage between the bracketed Cys) [Example 65]	F
{C20 diacid}-[γGlu]EKEKEKGEKGRSSCFGGRIDRIGHYSGLGCPSLRHGGPSSGAPPPS-NH2 (disulfide 15-31) [Example 51]	T
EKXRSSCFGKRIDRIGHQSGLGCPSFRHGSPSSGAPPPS (HOOC-(CH2)18-CO-(γGlu)-EKEKEKG-PEG24-EK-βAla-RSS[CFGKRIDRIGHQSGLGC]PSFRHGSPSSGAPPPS-NH2; thioacetal linkage between the bracketed Cys) [Example 4]	F
{C20 diacid}-[γGlu]EKEKEKGS[4Pal]KRSSCFGGKIDRIGHQSGLGCPSFRHGPSSGAPPPS-NH2 (disulfide 15-31) [Example 33]	T
EKXRSSCFGKRIDRIGHQSGLGCPSFRHGGKSSGAPPPS (HOOC-(CH2)18-CO-(γGlu)-EKEKEKG-(AEEA)4-EK-βAla-RSS[CFGKRIDRIGHQSGLGC]PSFRHGGKSSGAPPPS-NH2; thioacetal linkage between the bracketed Cys) [Example 88]	F
EKXRSSCFGGKIDRIGHQSGLGCPSFRHGSPSSGAPPPS (HOOC-(CH2)18-CO-(γGlu)-EKEKEKG-PEG24-EK-βAla-RSS[CFGGKIDRIGHQSGLGC]PSFRHGSPSSGAPPPS-NH2; thioacetal linkage between the bracketed Cys) [Example 7]	F
{C20 diacid}-[γGlu]EKEKEKGEK[βAla]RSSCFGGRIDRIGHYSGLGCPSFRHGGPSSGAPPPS-NH2 (disulfide 15-31) [Example 54]	T
{C20 diacid}-[γGlu]EKEKEKGS[4Pal]RRSSCFGGRIDRIGHQSGLGCPSFRHRITAREDKQGEA-NH2 (disulfide 15-31) [Example 26]	F
SXRRSSCFGKRIDRIGHQSGLGCPSFRHGGKSSGAPPPS (HOOC-(CH2)18-CO-(γGlu)-EKEKEKG-(AEEA)8-S-4Pal-RRSS[CFGKRIDRIGHQSGLGC]PSFRHGGKSSGAPPPS-NH2; thioacetal linkage between the bracketed Cys) [Example 87]	F
{C20 diacid}-[γGlu]EKEKEKGS[4Pal]RRSSCFGGRIGRIGHQSGLGCPSFRHGGPSSGAPPPS-NH2 (disulfide 15-31) [Example 29]	F
